Target: HLA-A*02:06
Assay: IEDB peptide-MHC binding, purified MHC/competitive/radioactivity; filed as Kd, often an IC50 or EC50 that approximates it; bounds were set here for any values at or beyond the usual limits of such assays
Settings: source organism: Dengue virus 1 Brazil/97-11/1997
pKd: −log10 of the molar value.
Reported pKd values are given for each entry in this list.
Reported endpoint: pKd

- Seq string: "IIFILLMLV"
  Observed: 5.93
- Seq string: "QVFGTAYGV"
  Observed: 8.14

###

Target: HLA-B*46:01
Test: IEDB peptide-MHC binding, purified MHC/competitive/fluorescence; filed as Kd, often an IC50 or EC50 that approximates it; bounds were set here for any values at or beyond the usual limits of such assays
Conditions: source organism: Entamoeba dispar SAW760
pKd: −log10 of the molar value.
Measured pKd of individual entries
Reported endpoint: pKd

- Seq string: "FELLHFISS"
  Reported endpoint: "pKd"
  Observed: "≤ 4.70"
- Seq string: "LVGNTLTTC"
  Reported endpoint: "pKd"
  Observed: "≤ 4.70"
